- TEST DESCRIPTION: Pharmacokinetic study in dogs
- MEASUREMENT PARAMETERS: dog, in vivo, po; Beagle dogs, plasma, after intragastric L15 hydrochloride 2 mg/kg (as free base); label = analyte
RECORDED METRIC: AUC(0-t)
In your response, the unit should come after the numeric value.

Query: Look up AUC(0-t) for this compound: c1cc2c(s1)[C@@H]1CNCCN1CC2 [Compound 1-b]
Result: 0.0547 µM·h

* * *

Exercise: for every item that follows, state its recorded pEC50.
- TARGET: TAAR1 (Homo sapiens, UniProt Q96RJ0)
- Construct: expressed in transfected cells; host or cells: CHO-K1 (cAMP Hunter TAAR1 Gs cell line)
- Sequence (Q96RJ0 whole entry): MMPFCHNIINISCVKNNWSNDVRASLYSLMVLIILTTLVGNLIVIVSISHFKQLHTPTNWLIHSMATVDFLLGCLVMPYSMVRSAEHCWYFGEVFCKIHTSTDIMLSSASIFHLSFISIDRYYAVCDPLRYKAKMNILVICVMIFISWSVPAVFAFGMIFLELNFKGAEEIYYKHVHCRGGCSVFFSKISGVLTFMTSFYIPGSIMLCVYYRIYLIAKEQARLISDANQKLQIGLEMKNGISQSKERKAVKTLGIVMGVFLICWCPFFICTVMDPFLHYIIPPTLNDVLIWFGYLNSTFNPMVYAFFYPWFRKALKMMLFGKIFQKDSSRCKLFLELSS
- TEST DESCRIPTION: In vitro TAAR1 functional activity (cAMP Hunter CHO-K1 TAAR1 Gs cell line, HitHunter cAMP assay)
- Type: cell-based
- MEASUREMENT PARAMETERS: cAMP Hunter CHO-K1 TAAR1 Gs cell line, chemiluminescence cAMP readout; read-out: EC50
pEC50: −log10 of the molar value.

Example entries begin here.
                                   compound  recorded_metric  obs_value
0   CN1CCN2CCc3ccsc3[C@H]2C1 [Compound 2-b]            pEC50     < 5.00
1  CNCC1OC(COC)Cc2ccsc21 (stereo not drawn) [Compound 30]            pEC50     < 5.00
2  COc1ccsc1C1CNCCO1 (single isomer, unassigned) [Compound 10-b]            pEC50       6.41
3     CNC[C@@H]1SCCc2ccsc21 [Compound 40-a]            pEC50     < 5.00
4  CNCC1OC(C)(C)Cc2ccsc21 (stereo not drawn) [Compound 34]            pEC50       5.90

Query: I'd like to know its pEC50. The compound in question is CNCC1OCC(C)(C)c2ccsc21 (stereo not drawn) [Compound 35]
Result: < 5.00
